assay: NCI Yeast Anticancer Drug Screen. Data for the rad50 strain (AID 155);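 further: 0% = growth of vehicle-only cultures of the same strain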; settings: S. cerevisiae rad50 strain growth inhibition; at 50.0 µM; stronger effect = higher value
This is part of a sample that, as a whole, favours compounds with a hit. Of some 79,000 tested, about 15% had one in any assay.
METRIC_NAME: growth inhibition (%)
Unit % implied. Number only.

The recorded growth inhibition for C#CC(C)(O)c1ccc(Cl)cc1 (stereo not given) is 14.4

// sample O=C(O)CCC(=O)OC(C1CO1)C(OC(=O)CCC(=O)O)C1CO1 (stereo not given) , its growth inhibition was -0.85

Sample Oc1ccccc1O ; growth inhibition observed: 11.7

Short answer for CCC(C)(C)C1CCC(O)CC1 (stereo not given) : growth inhibition was 10.2

growth inhibition for CCO/C=C1\SC(=S)N(c2cccc(C)c2)C1=O is 11.1

Reported growth inhibition for CC(=O)OCCO was 9.6

Lab note: O=S(=O)(O)c1ccc(Cl)c(Cl)c1 gave growth inhibition of -0.35

For record Cc1ncc(C#N)c(N)n1 the listed growth inhibition is -24.9

// C#CC(C(C)C)N(CCO)CCCC (stereo not given) : growth inhibition value = 11.2

Recorded growth inhibition (compound COc1ccc(OC)c(/C=C2\CCc3ccccc3C2=O)c1 ): 17.4

Record summary for Cc1ccncc1C(N)=O : reported growth inhibition = -1.4

Entry COc1ccccc1C1OC2=Nc3cc(C)c(C)cc3NC2C1=O (stereo not given) ; growth inhibition = 11.1

Reported growth inhibition of CC(=O)N(C)c1ccc([N+](=O)[O-])cc1 : 21.8

growth inhibition reported for this compound O=C(O)c1cc([N+](=O)[O-])ccc1Cl : 27.9

Short answer for CCC/C=C(/C(C)=O)C(=O)OCC : growth inhibition was 18.9

Form field growth inhibition, entry COc1ccc2c(NCCCCCCCCNc3c4ccccc4nc4cc(OC)ccc34)c3ccccc3nc2c1 : 90.8

Recorded growth inhibition (compound CC(=O)/C(Cc1ccccc1)=N/O ): 10.7

Note to self: growth inhibition recorded for O=C(/C=C\c1ccc(O)cc1)c1ccccc1 was 15.9

Reported growth inhibition for O=C(O)/C=C/c1ccc2c(c1)CCC2 was 28.6

Reported growth inhibition of COC(=O)c1ccc(C(C)C)cc1 : 2.95

Record summary for O=C(NN=C1CCCCC1)C(=O)NN=C1CCCCC1 : reported growth inhibition = 34.1

The compound identified as O=[N+]([O-])c1ccc(-c2noc(-c3cccs3)n2)cc1 registered its growth inhibition at -3.2

// sample O=[N+]([O-])c1cccc(C(F)(F)F)c1 , its growth inhibition was -3.9

Entry under test: CCN(CC)CCCC(C)Nc1ccnc(/C=C/c2ccc(Cl)cc2)c1 (stereo not given) . Its growth inhibition was 2.75

The recorded growth inhibition for O=C(O)c1cccc([N+](=O)[O-])c1 is -28

Reported growth inhibition ( COc1ccc(C(O)c2ccccc2)cc1 (stereo not given) ) = 2.2

Per the record, O=c1[nH]cc(Cl)cc1O has growth inhibition of -0.15

Entry COC1=CC(=O)c2nc(Cl)ccc2C1=O , growth inhibition reported as 29

Record summary for CCCCCCCO : reported growth inhibition = -11

The reported growth inhibition of the compound CC(=O)c1ccc(N=C(C#N)C2=C(O)c3ccccc3C2=O)cc1 was 15.7

Short answer for O=C(c1ccccc1)C1CCC1 : growth inhibition was 22.6

Value of growth inhibition reported for the compound c1ccc(CN2COc3c(ccc4c3OCN(Cc3ccccc3)C4)C2)cc1 is 7.4

Memo: CC(=O)Oc1ccc(Br)cc1C(=O)O , reported growth inhibition: -15.2

Data point: CCOc1ccc(/C=C/C(=O)c2ccccc2)cc1 ; growth inhibition = -9.9

The value of growth inhibition measured for the compound COCCOCCCl turned out to be 10

In plain terms, CSC[C@H](NC(=O)COc1cccc2cnccc12)C(=O)NC(Cc1ccccc1)C(O)C(=O)N1CSC[C@H]1C(=O)NC(C)(C)C (stereo not given in full) has a documented growth inhibition of -34.3

Entry under test: CCOC(=O)C(C#N)Cc1ccccc1 (stereo not given) . Its growth inhibition was -0.85

Looking up Nc1ccc(N=Nc2ccc(S(=O)(=O)O)cc2)c2ccccc12 , I found its growth inhibition recorded as -0.3

Kindly note the recorded growth inhibition for Cc1cc(Cc2cc(C)c(N)cc2N)c(N)cc1N , which is -1.6

GET /value?item= Cc1cccc(C(=O)N(C(C)C)C(C)C)c1 &field=growth inhibition returns -0.9

Record CCCCCCCCCCC1CO1 (stereo not given) . Reported growth inhibition: 4.95

Lab note: NC(C(=O)O)C(O)c1ccco1 (stereo not given) gave growth inhibition of 6.6

For CC12CC3CC1C(C(=O)O2)C3C(=O)O (stereo not given) the compound record lists growth inhibition as -20.6

Entry Cc1ccc(Cl)cc1NC(=O)N(C)CCO , growth inhibition reported as 6.3

Value of growth inhibition reported for the compound CC(C)=C(NC(=O)c1ccccc1)C(=O)O is 14.1

Measured growth inhibition, Cc1cc(O)ccc1O : 31

Field growth inhibition (entry Nc1ccc(N)c([N+](=O)[O-])c1 ) reads -30.9

Short answer for CNc1nc(NC)c2cn[nH]c2n1 : growth inhibition was 17.7

Form: compound = C/C=C/CC(C)C(O)C1C(=O)NC(CC)C(=O)N(C)CC(=O)N(C)C(CC(C)C)C(=O)NC(C(C)C)C(=O)N(C)C(CC(C)C)C(=O)NC(C)C(=O)NC(C)C(=O)N(C)C(CC(C)C)C(=O)N(C)C(CC(C)C)C(=O)N(C)C(C(C)C)C(=O)N1C (stereo not given) ; growth inhibition = 17.3

Entry CC(C)CCCC(=O)O ; growth inhibition = -9.7

Entry O=C1Cc2ccccc2C(=O)O1 , growth inhibition reported as 25.9

Item: FC(F)(F)c1ccc2c(c1)N(CCCN1CCN(C3CC3)CC1)c1ccccc1S2 | growth inhibition: 99.3

The compound listed as CCOC(=O)/C(=C/c1ccc(OC)cc1)N(CC)CC shows growth inhibition equal to -45.8

Entry O=C(O)C(O)c1ccccc1 (stereo not given) ; growth inhibition = 20.2

Please fill in: growth inhibition reported for Cc1cc2nc(CO)[nH]c2cc1C = -2.95
